meta.source: patent US8673586B2

Biological target: PDGF-Ralpha (Homo sapiens)
Construct: made in house
Sequence (P16234 24-1089, species assumed): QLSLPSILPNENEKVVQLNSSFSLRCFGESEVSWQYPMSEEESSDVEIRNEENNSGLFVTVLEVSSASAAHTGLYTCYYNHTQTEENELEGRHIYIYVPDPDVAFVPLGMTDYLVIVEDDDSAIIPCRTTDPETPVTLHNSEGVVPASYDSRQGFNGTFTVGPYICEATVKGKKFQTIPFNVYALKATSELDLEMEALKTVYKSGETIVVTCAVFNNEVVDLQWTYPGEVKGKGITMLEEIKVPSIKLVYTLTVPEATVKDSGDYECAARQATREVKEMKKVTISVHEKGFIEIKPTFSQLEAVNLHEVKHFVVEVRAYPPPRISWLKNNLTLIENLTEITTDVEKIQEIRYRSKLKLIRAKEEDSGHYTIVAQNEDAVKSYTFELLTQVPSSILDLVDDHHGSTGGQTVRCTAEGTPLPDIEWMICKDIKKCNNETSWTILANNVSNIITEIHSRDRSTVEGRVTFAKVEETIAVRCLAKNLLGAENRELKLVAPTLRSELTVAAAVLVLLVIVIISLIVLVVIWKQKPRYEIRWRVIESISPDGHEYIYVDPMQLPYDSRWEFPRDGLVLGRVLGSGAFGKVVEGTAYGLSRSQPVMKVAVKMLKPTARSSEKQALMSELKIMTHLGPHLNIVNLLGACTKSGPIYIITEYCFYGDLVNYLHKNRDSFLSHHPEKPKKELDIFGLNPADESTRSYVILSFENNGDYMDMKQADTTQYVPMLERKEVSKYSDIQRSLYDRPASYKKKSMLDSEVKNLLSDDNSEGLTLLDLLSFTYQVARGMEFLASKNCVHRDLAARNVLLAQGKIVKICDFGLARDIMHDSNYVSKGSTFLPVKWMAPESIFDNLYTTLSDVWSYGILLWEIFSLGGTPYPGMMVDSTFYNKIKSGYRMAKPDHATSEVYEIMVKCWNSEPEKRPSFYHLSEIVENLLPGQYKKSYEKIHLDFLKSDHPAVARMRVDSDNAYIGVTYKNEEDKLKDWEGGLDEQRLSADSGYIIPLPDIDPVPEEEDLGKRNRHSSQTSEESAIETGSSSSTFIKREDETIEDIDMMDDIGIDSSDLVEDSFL
Assay: PDGF-Ralpha kinase assay, 33P-ATP incorporation, residual activity
Type: biochemical
Conditions: tested at 25 micromolar
reported-property: PDGFalpha

{"smi": "Cc1cccc(CSc2nc3cc(C(N)=O)ccc3n2C[C@H]2O[C@@H](n3cnc4c(N)ncnc43)[C@H](O)[C@@H]2O)c1", "PDGFalpha": 106}

1. CCCCCCCCSc1nc2cc(C(N)=O)ccc2n1C[C@H]1O[C@@H](n2nnc(C(N)=O)c2-c2ccccc2)[C@H](O)[C@@H]1O
2. CCCc1c(C(N)=O)nnn1[C@@H]1O[C@H](CNCc2nc3cc(C(N)=O)ccc3n2-c2ccc(-c3ccccc3)cc2)[C@@H](O)[C@H]1O
Returns the identifier with the smallest measured PDGFalpha among 1 and 2 . Give the label of your selection.
2
